- testedSystem: human MAGL (His-hMAGL) (Homo sapiens, UniProt Q99685)
- Construct: made in house; host or cells: Escherichia coli BL21(DE3)
- experimentalDetails: Measurement of MAGL inhibitory activity by absorbance
- Format: biochemical
- setupConditions: 10 μM test compound; substrate p-nitrophenyl acetate, absorbance at 405 nm
endpointLabel: inhibition at 10 µM (%)
Hi! Could you send only the number? It should be in %, unit omitted.

[
  {
    "compound": "O=C(c1nccs1)N1CCN(C2CC(=O)N(c3ccc4c(ccn4-c4ccc(F)cn4)c3)C2)CC1 (stereo not shown) [Example 82]",
    "testedSystem": "human MAGL (His-hMAGL) (Homo sapiens, UniProt Q99685)",
    "unit": "%",
    "inhibition at 10 µM": 95
  },
  {
    "compound": "O=C(c1nccs1)N1CCN(C2CC(=O)N(c3ccc4c(ccn4-c4ncc(C(F)(F)F)cn4)c3)C2)CC1 (stereo not shown) [Example 52]",
    "testedSystem": "human MAGL (His-hMAGL) (Homo sapiens, UniProt Q99685)",
    "unit": "%",
    "inhibition at 10 µM": 97
  },
  {
    "compound": "COc1cc(Oc2ccccc2)ccc1N1CC(N2CCN(C(=O)c3nccs3)CC2)CC1=O (stereo not shown) [Example 13]",
    "testedSystem": "human MAGL (His-hMAGL) (Homo sapiens, UniProt Q99685)",
    "unit": "%",
    "inhibition at 10 µM": 98
  }
]

Problem: Please state recorded inhibition at 10 µM (tested on human MAGL (His-hMAGL) (Homo sapiens, UniProt Q99685)) of O=C(c1nccs1)N1CCN(C2CC(=O)N(c3ccc(Oc4ccc(F)c(F)c4)cc3)C2)CC1 (stereo not shown) [Example 12]
Solution: 98

Problem: Now give it for O=C(c1nccs1)N1CCN(C2CC(=O)N(c3cccc(Nc4ccc(F)cc4)c3)C2)CC1 (stereo not shown) [Example 77] too.
Solution: 96

Problem: Now give it for O=C(c1nccs1)N1CCN(C2CC(=O)N(c3ccc4c(ccn4-c4ccc(F)cc4)c3)C2)CC1 (stereo not shown) [Example 14] too.
Solution: 98

Problem: Now give it for N#Cc1cccnc1N1CCN(C2CC(=O)N(c3ccc(Oc4ccccc4)cc3)C2)CC1 (stereo not shown) [Example 7] too.
Solution: 87

Problem: Now give it for O=C(c1nccs1)N1CCN(C2CC(=O)N(c3cccc(I)c3)C2)CC1 (stereo not shown) [Example 75] too.
Solution: 95

====

- testedSystem: human MAGL (His-hMAGL) (Homo sapiens)
- Construct: made in house; host or cells: Escherichia coli BL21(DE3)
- Sequence (Q99685 1-303): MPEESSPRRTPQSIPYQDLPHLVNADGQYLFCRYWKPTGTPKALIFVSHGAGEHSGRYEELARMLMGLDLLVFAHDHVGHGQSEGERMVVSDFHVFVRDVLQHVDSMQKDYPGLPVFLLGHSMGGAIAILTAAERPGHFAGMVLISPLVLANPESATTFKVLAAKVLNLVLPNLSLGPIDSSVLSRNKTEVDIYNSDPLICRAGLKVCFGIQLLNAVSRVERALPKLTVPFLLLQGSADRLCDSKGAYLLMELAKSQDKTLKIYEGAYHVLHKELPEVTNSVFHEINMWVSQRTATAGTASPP
- experimentalDetails: Measurement of MAGL inhibitory activity by mass spectrometry
- Format: biochemical
- setupConditions: MAGL inhibitory rate, test compound 10 μM, His-hMAGL, substrate 2-arachidonylglycerol, RapidFire-mass spectrometry
endpointLabel: inhibition at 10 µM (%)
Hi! Could you send only the number? It should be in %, unit omitted.

Problem: // returns reported inhibition at 10 µM for input `O=C(c1nccs1)N1CCN([C@@H]2CC(=O)N(c3ccc4c(cnn4-c4ccc(F)cc4)c3)C2)CC1`
Solution: 100

Problem: Now give it for O=C(c1nccs1)N1CCN(C2CC(=O)N(c3cccc(-c4c(F)c(F)c(F)c(F)c4F)c3)C2)CC1 (stereo not drawn) too.
Solution: 101

Problem: Now give it for CC(C)(C)CC(=O)N1CCc2cc(N3CC(N4CCN(C(=O)c5nccs5)CC4)CC3=O)ccc21 (stereo not drawn) too.
Solution: 99

Problem: Now give it for Cc1cccc(-n2ccc3cc(N4CC(N5CCN(C(=O)c6nccs6)CC5)CC4=O)ccc32)c1 (stereo not drawn) too.
Solution: 102

Problem: Now give it for O=C(c1nccs1)N1CCN(C2CC(=O)N(c3cccc(-c4csc5ncccc45)c3)C2)CC1 (stereo not drawn) too.
Solution: 100

Problem: Now give it for `O=C(c1cscn1)N1CCN([C@@H]2CC(=O)N(c3ccc4c(c3)CCN4C(=O)Cc3ccc(Cl)cc3)C2)CC1` too.
Solution: 97

Problem: Now give it for O=C(c1ncco1)N1CCN(C2CC(=O)N(c3cccc(-c4cccnc4Cl)c3)C2)CC1 (stereo not drawn) too.
Solution: 100

Problem: Now give it for O=C(c1nccs1)N1CCN(C2CC(=O)N(c3cccc(-c4cnccc4C(F)(F)F)c3)C2)CC1 (stereo not drawn) too.
Solution: 104

Problem: Now give it for O=C1CC(N2CCN(c3ncccn3)CC2)CN1c1cc(F)cc(Br)c1 (stereo not drawn) too.
Solution: 91

Where these numbers come from: patent US9624170B2
